tested on: SNB-19 CNS; experiment: NCI tumour cell line growth inhibition, 48 h
I'd be grateful if you could share measured GI50 for these entries.

Hello, I would appreciate it if you could give GI50 for each entry below.
1. COc1ccc(N(CC(=O)NCCC[Te]c2ccccc2)C(=O)c2ccccc2)cc1
2. COc1cc(C(=O)c2ccc3c(c2)OCO3)cc(OC)c1OC
3. COc1ccccc1OCC(=O)Nc1sc2c(c1C(N)=O)CCC2
4. CCC(C)(C)C(=O)O[C@H]1C[C@@H](C)C=C2C=C[C@H](C)[C@H](CC[C@@H]3C[C@@H](O)CC(=O)O3)[C@H]21
5. C/C=C(\C)C(=O)N[C@H]1CC[C@]2(C)C3CC[C@@]4(C)C(CC[C@@H]4C(C)N(C)C)C3CCC2[C@H]1OC(C)=O (stereo partly drawn)

1: 4.06 µM; 2: 5.07 µM; 3: > 100 µM; 4: 3.13 µM; 5: 2.1 µM

----------
Please go through the items and note down their TGI.
tested on: SN12C renal; test: NCI tumour cell line growth inhibition, 48 h

Examples from the recorded data:
>  <CHEMICAL_SMILES>
O=C(Nc1cc(C(=O)Nc2cccc(S(=O)(=O)O)c2)cc(C(=O)Nc2cccc(S(=O)(=O)O)c2)c1)c1cccc(C(=O)Nc2cc(C(=O)Nc3cccc(S(=O)(=O)O)c3)cc(C(=O)Nc3cccc(S(=O)(=O)O)c3)c2)c1

>  <TESTED_SYSTEM>
SN12C renal

>  <TEST_RESULT>
> 100 µM

$$$$
>  <CHEMICAL_SMILES>
CN(C)CCNC(=O)c1cc2ccccc2c2nc3ccccc3nc12

>  <TESTED_SYSTEM>
SN12C renal

>  <TEST_RESULT>
3.89 µM

$$$$
>  <CHEMICAL_SMILES>
Cc1cc(NC(=S)Nc2ccccc2)c(NC(=S)Nc2ccccc2)cc1C

>  <TESTED_SYSTEM>
SN12C renal

>  <TEST_RESULT>
> 100 µM

$$$$
>  <CHEMICAL_SMILES>
COc1cc(/C=C2\C[C@H]3[C@@H]4CC=C5C[C@@H](O)CC[C@]5(C)[C@H]4CC[C@]3(C)[C@H]2O)cc(OC)c1OC

>  <TESTED_SYSTEM>
SN12C renal

>  <TEST_RESULT>
> 100 µM

$$$$
>  <CHEMICAL_SMILES>
C=CCc1cc(-c2cc(CC=C)c(O)c(CN(CCCl)CCCl)c2)cc(CN(CCCl)CCCl)c1O

>  <TESTED_SYSTEM>
SN12C renal

>  <TEST_RESULT>
27.7 µM

$$$$

Give measured TGI for every item shown.
1. COc1ccc(N(CC(=O)NCCC[Te]c2ccccc2)C(=O)c2ccccc2)cc1
2. CC1=NN(c2nc(N)nc(CCl)n2)CC1
3. COC(=O)CCCN(C)c1n[nH]c(N)n1
4. [O-]c1c2c(nn1-c1ccccc1)c1ccccc1c[n+]2Cc1ccccc1

1. 8.51 µM
2. > 100 µM
3. > 100 µM
4. > 100 µM

----------
test system: HOP-92 NSCLC; assay: NCI tumour cell line growth inhibition, 48 h; in the data active = GI50 below about 0.43 µM; inactive = the rest
Bench note: report the call from true = active, false = inactive

// below: answered compounds
>  <COMPOUND>
CCC[CH2][Sn]1([CH2]CCC)[O]C(=O)c2cc(I)cc(I)c2[O]1

>  <CATEGORY_LABEL>
false

$$$$
>  <COMPOUND>
COc1cc(NS(C)(=O)=O)ccc1Nc1c2ccc(Cl)cc2nc2c(OC)cccc12

>  <CATEGORY_LABEL>
true

$$$$
>  <COMPOUND>
CC(C)=CCC[C@H](C)[C@@H]1CC[C@]2(C)C3CC[C@]4(OC4(C)C)C(CCCO)[C@]3(C)CC[C@@]12C (stereo partly specified)

>  <CATEGORY_LABEL>
false

$$$$
>  <COMPOUND>
CCOc1cccc(/C=N/NC(=O)c2ccc(Nc3ccnc(C(F)(F)F)c3)cc2)c1O

>  <CATEGORY_LABEL>
false

$$$$
>  <COMPOUND>
CCN(CC)CCCC(C)Nc1cnc(C(=O)Nc2ccc(Cl)c3cccnc23)cn1 (stereo unspecified)

>  <CATEGORY_LABEL>
false

$$$$

Record request — test call for CC1=C[C@H]2c3c(c(O)c(O)c4oc5c(C)cccc5c(=O)c34)[C@H](c3cc(O)c(O)c4oc5c(C)cccc5c(=O)c34)[C@H]2C(C)(C)C1
false
